Numbers sourced from patent US20180371107A1.

# test system: T1, mouse NSP4 (mNSP4), form not stated in Example 6 (mouse, UniProt Q14B24 40-284, limits assumed)
# T1 construct: also called recombinant mouse NSP4; purified mouse NSP4
# T1 sequence (looked up): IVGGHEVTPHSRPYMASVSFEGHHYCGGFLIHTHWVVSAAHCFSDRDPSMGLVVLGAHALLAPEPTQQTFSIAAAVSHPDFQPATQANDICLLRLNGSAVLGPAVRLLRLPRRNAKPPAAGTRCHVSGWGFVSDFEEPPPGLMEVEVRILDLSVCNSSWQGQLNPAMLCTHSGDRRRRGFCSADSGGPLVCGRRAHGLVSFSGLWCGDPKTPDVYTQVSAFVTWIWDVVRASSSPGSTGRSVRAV
# measurement description: ratio of phage IC50 against the parental clone 51.WT
parameter: Affinity improvement to mNSP4 (fold)
Write the value in fold as a bare number.

[ask] Give Affinity improvement to mNSP4 for affinity matured anti-NSP4 antibody clone 51.82 (Fab, V domains shown) VH: EVQLVESGGGLVQPGGSLRLSCAASGFTFSGSGIHWVRQAPGKGLEWVAWISPTGGNTYYADSVKGRFTISADTSKNTAYLQMNSLRAEDTAVYYCARGLFHNVAFDYWGQGTLVTVSS VL: DIQMTQSPSSLSASVGDRVTITCRASQDVSTAVAWYQQKPGKAPKLLIYSASFLYSGVPSRFSGSGSGTDFTLTISSLQPEDFATYYCQQTYNAPPTFGQGTKVEIKR
[reply] 505
